tested on: B cell line, TNFa signaling counterscreen reporter; experiment: TNFa signaling inhibitors in B cell line, dose response, counter-screen (AID 1259334);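 further: cells stimulated with TNFa after compound preincubation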
The source made the active and inactive calls. No stated cut-off is given here; in the data, active means AC50 below about 11 µM.
Labels: TRUE = active, FALSE = inactive

1) CC(C)NC(=O)N1Cc2cc(C(=O)NC3Cc4ccccc4C3)nc(-c3cccc(-c4cccnc4)c3)c2[C@@H]1CCO :: TRUE
2) CC(C)OC(=O)c1cn(Cc2c(F)cccc2F)c2sc(-c3ccc(NC(=O)C(C)C)cc3)c(CN(C)Cc3ccccc3)c2c1=O :: TRUE
3) O=C(c1ccc(F)cc1)N1C[C@@H]2N[C@H](C1)C2c1ccc(/C=C/c2ccccc2)cc1 (stereo partly drawn) :: TRUE
4) Cc1csc(NC(=O)c2ccc(N3CCCC3=O)cc2)n1 :: TRUE
5) N#Cc1cccc(-c2ccc([C@@H]3[C@@H]4CN(S(=O)(=O)c5ccc(-c6ccccc6)cc5)C[C@H]3N4)cc2)c1 :: TRUE
6) C[C@@H]1CN([C@@H](C)CO)C(=O)c2ccccc2-c2ccccc2CO[C@@H]1CN(C)Cc1ccc(Oc2ccccc2)cc1 :: FALSE
7) CC(OC(=O)c1cc(Br)ccc1O)C(=O)Nc1ccc(S(=O)(=O)N2CCCC2)cc1 (stereo not drawn) :: TRUE
8) COc1ccc(C#Cc2ccc([C@H]3[C@H]4CN(C(=O)c5ccncc5)CCCCN4[C@H]3CO)cc2)cc1 :: TRUE

---

test system: B cell line, TNFa signaling counterscreen reporter; assay: TNFa signaling inhibitors in B cell line, dose response, counter-screen (AID 1259334);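 further: cells stimulated with TNFa after compound preincubation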
Endpoint name: AC50

1. COc1cccc(C#Cc2ccc([C@H]3[C@@H](C#N)N(C(=O)c4ccccn4)[C@@H]3CO)cc2)c1 :: 10.3 µM
2. C[C@H]1CN([C@@H](C)CO)C(=O)Cc2cc(NS(=O)(=O)c3cccs3)ccc2O[C@@H]1CN(C)Cc1ccc(Cl)c(Cl)c1 :: 7.19 µM
3. CCOc1ncccc1C(=O)OC(C)C(=O)Nc1ccc(Cl)cn1 (stereo not drawn) :: 10.3 µM
4. CC(=O)O[C@@H]1C[C@@]2(C)[C@H](c3ccoc3)C[C@H]3O[C@]32[C@]2(C)C(=O)C(=O)C3C(C)(C)C(=O)C=C[C@]3(C)C12 (stereo partly drawn) :: 1.22 µM
5. C[C@H](CO)N1C[C@H](C)[C@H](CN(C)C(=O)Nc2cccc(Cl)c2Cl)OCc2ccccc2-c2c(n(C)c3ccccc23)C1=O :: 2.81 µM
6. COc1ccc(CN(CCC(c2ccccc2)c2ccc(OC(C)C)cc2)C(=O)CCl)cc1OC (stereo not drawn) :: 1.46 µM
7. COc1ccc(CC2C(=O)NC(C)C(=O)N(C)C3C(=O)N(C)C(Cc4ccc(O)c(c4)Oc4ccc(cc4)C3O)C(=O)NC(C)C(=O)NC(C)C(=O)N2C)cc1 (stereo not drawn) :: 0.0133 µM
8. COc1cc2cc(C(=O)N3CC(COS(C)(=O)=O)c4ccc(O)cc43)[nH]c2c(OC)c1OC (stereo not drawn) :: 0.00612 µM

---

system: B cell line, TNFa signaling counterscreen reporter; assay: TNFa signaling inhibitors in B cell line, dose response, counter-screen (AID 1259334);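 further: cells stimulated with TNFa after compound preincubation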
Activity calls are given as the source filed them. Rule as the data show it: active = AC50 below about 11 µM. Numbered stars: 1 amine (or outer) side, 2 acyl side, 3 side chain; on linkers, the order of the positions; unused ones are H or OH. Bridge positions count the residues as written; N and C are the ends. Square brackets hold non-standard residues; d marks the D form. Peptide text beside a SMILES is read from it. I, II: the chains in the order shown. Actinocin(9to1) = Cc1c2oc3c(C)ccc(C(=O)[*:1])c3nc-2c(C(=O)[*:2])c(N)c1=O; NMeV = CN[CH](C(=O)O)C(C)C; Sar = CNCC(=O)O
Possible outcomes: label 1 (active), label 0 (inactive)

1) COc1cc(/C=N/n2cnnc2)ccc1OC(=O)c1ccncc1 :: label 1
2) C[C@@H]1CN([C@@H](C)CO)C(=O)c2c(c3ccccc3n2C)-c2ccccc2CO[C@@H]1CN(C)C(=O)Nc1ccccc1C(F)(F)F :: label 1
3) CC1(C)C(=O)C=C[C@@]2(C)C1C[C@@H](O)[C@]1(C)C2CC[C@@]2(C)[C@H](c3ccoc3)OC(=O)[C@H]3O[C@]321 (stereo partly specified) :: label 1
4) C[C@@H]1CN([C@@H](C)CO)C(=O)c2c(c3ccccc3n2C)-c2ccccc2CO[C@H]1CN(C)Cc1ccccc1 :: label 1
5) O=C(Nc1ccc2c(c1)OCCO2)C1CCCC1 :: label 1
6) O=C1C(O)CC2c3ccccc3CC3(CCCC3)N12 (stereo unspecified) :: label 0
7) COC(=O)C1=C(C(=O)OC)C(C(=O)OC)C(C(=O)OC)C(C(=O)OC)(C(=O)OC)C(C(=O)OC)=C1C(=O)OC (stereo unspecified) :: label 1
8) Cc1c2oc3c(C)ccc(C(=O)OC(C)C4NC(=O)C(C(C)C)N(C)C(=O)CN(C)C(=O)C5CCCN5C(=O)C(C(C)C)NC4=O)c3nc-2c(C(=O)OC(C)C2NC(=O)C(C(C)C)N(C)C(=O)CN(C)C(=O)C3CCCN3C(=O)C(C(C)C)NC2=O)c(N)c1=O (stereo unspecified) (I: cyclo([Sar][NMeV]TVP) / II: cyclo([Sar][NMeV]TVP); linker I:3-II:3 via Actinocin(9to1); configuration not given here) :: label 1
9) O=C(C#Cc1ccccc1)c1ccccc1 :: label 1
10) CC1CC(C)C(=O)C(C(CC2CC(=O)NC(=O)C2)OC(=O)CC(=O)c2ccccc2)C1 (stereo unspecified) :: label 1
11) CCC(C)(O)C(=O)OC1C(=O)OC2CC3C(C)=CC(=O)C(O)C3(C)C3C4(O)OCC23C1C(C)C4O (stereo unspecified) :: label 1
12) CCC(=O)NC(c1ccccc1OC)c1ccc2cccnc2c1O (stereo unspecified) :: label 1
13) C[C@@H]1CCCCO[C@H](CN(C)CC2CCCCC2)[C@H](C)CN([C@@H](C)CO)C(=O)c2cc(NC(=O)Nc3ccc(C(F)(F)F)cc3)ccc2O1 :: label 0
14) CC(=O)OC1CCC2(C)C(CCC3C4CC=C(C(C)=O)C4(C)OC(=O)CC32)C1 (stereo unspecified) :: label 1
15) O=C(Nc1cccc(N2C(=O)C=CC2=O)c1)c1cccs1 :: label 1
16) CC1OC(OC2C(O)CC(OC3C(O)CC(OC4CCC5(C)C(CCC6C5CCC5(C)C(C7=CC(=O)OC7)C(O)CC65O)C4)OC3C)OC2C)CC(O)C1O (stereo unspecified) :: label 1
